Target: Sodium- and chloride-dependent GABA transporter 1 (Mus musculus) (UniProt P31648)
Assay: Inhibition of mouse GAT1-mediated [3H]GABA uptake expressed in human HEK cells assessed as specific binding remaining at 1 mM
Assay type: cell-based
Conditions: HEK293
readoutLabel: Activity (%)
Numbers only, in %.

Here are 5 molecules together with their reported answers.
O=C(O)Cc1ncc[nH]1 | 75.3
O=C(O)CCc1c[nH]cn1 | 61.7
O=C(O)/C=C\c1ncc[nH]1 | 102
O=C(O)CCCc1ncc[nH]1 | 62.3
O=C(O)/C=C/c1c[nH]cn1 | 54.8

List Activity for every entry below, keeping the order given.
1. O=C(O)CCc1ncc[nH]1
2. O=C(O)CCn1ccnc1
3. O=C(O)C1CCCc2[nH]cnc21 (stereo not drawn)
4. O=C(O)Cn1ccnc1
5. O=C(O)CCCCCCCn1ccnc1
6. O=C(O)C1CCc2[nH]cnc2C1 (stereo not drawn)
7. O=C(O)/C=C/c1ncc[nH]1
8. O=C(O)c1c[nH]cn1

[62.8, 72, 59, 73.3, 68.3, 85, 73.3, 90.8]

---

Target: Sodium- and chloride-dependent GABA transporter 1 (Mus musculus, UniProt P31648)
Type: cell-based, HEK293
Conditions: read-out: pIC50 (converted)
Field: IC50. Provide a value for each of the compounds that follow.
Give bare numbers, in µM.

The following compounds each have a reported value; give each one's IC50.
1. O=C(O)CCCc1c[nH]cn1
2. O=C(O)CCCCc1ncc[nH]1
3. O=C(O)Cc1c[nH]cn1
4. O=C(O)CCCCCCn1ccnc1
5. O=C(O)/C=C/CCc1c[nH]cn1
6. O=C(O)/C=C/CCc1ncc[nH]1
7. O=C(O)CCCCc1c[nH]cn1
8. O=C(O)CCCCn1ccnc1

1: 417; 2: 724; 3: 617; 4: 676; 5: 123; 6: 324; 7: 417; 8: 115

Dear colleague, could you send me IC50 for each of the items below? Thanks.
1. NCCC(=O)O
2. O=C(O)CCCn1ccnc1
3. O=C(O)CCCCCn1ccnc1

1: 2570; 2: 117; 3: 1020

---

What pIC50 was measured for each of the following?
Target: Sodium- and chloride-dependent GABA transporter 1 (Mus musculus, UniProt P31648)
Type: cell-based, HEK293
Conditions: read-out: IC50
Give bare numbers, as −log10 of the molar value.

Cc1ccsc1C(=CCCN(C)C1CCCc2onc(O)c21)c1sccc1C (configuration not stated) | 5.40

get_value(item= "COc1ccc(C2(O)CCN(CCCn3c4ccccc4c4ccccc43)CC2)cc1" , readout=pIC50) returns 4.72
